experimental target: T1, SYNJ2BP, P57105
T1 sequence (P57105 8-110, limits assumed, looked up): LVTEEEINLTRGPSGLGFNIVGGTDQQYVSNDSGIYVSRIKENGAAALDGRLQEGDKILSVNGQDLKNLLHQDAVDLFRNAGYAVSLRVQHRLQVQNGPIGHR
experiment summary: holdup assay
Set-up: key: below the threshold = too weak to quantify, mostly under pKd 3.1 to 4
test settings: plain residues with an end cap or a label only (N-terminal biotin on a linker: ado-ado)
measured attribute: pKd
// return just the number, without any unit appended

TRKRSGEAAV [PFKM, P08237] | 4.06
QRPYRRGSEI [KCNJ18, B7U540] | 4.91
TNSRHGETTV [FZD2, Q14332] | 5.08

Ask: # lookup: pKd of DTKNYKQTSV [CRIPT, Q9P021]
Result: 5.12
